These entries and their values trace back to patent US11014884B2.

Can you tell me Delta-p50 (%) for the items I'm about to list?
Molecular target: Purified hemoglobin (Homo sapiens)
Sequence (P69905 2-142 limits assumed): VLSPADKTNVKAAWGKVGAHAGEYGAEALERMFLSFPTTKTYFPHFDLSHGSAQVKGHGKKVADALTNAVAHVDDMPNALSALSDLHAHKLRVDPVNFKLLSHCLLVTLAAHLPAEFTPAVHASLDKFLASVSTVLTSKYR
Sequence (P68871 2-147 partner limits assumed): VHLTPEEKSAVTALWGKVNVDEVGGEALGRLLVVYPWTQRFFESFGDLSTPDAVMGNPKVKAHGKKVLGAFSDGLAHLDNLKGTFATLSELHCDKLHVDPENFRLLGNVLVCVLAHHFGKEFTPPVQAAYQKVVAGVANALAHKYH
Assay: Hemoglobin assay: oxygen equilibrium curves with purified hemoglobin, change in p50
Type: biochemical
Settings: purified hemoglobin 25 μM, compound 25 μM, 1 h at 37° C.
Use % as the unit, but write only the number.

The molecule O=Cc1ccccc1OC[C@@H]1CCCCN1C(=O)c1cccc(O)c1C=O showed Delta-p50 (%) equal to 71

The molecule O=Cc1c(O)cccc1OCC1CSCCN1C(=O)c1cccc(O)c1C=O (single isomer, unassigned) [67 (Enantiomer 2)] showed Delta-p50 (%) equal to 69.3

The molecule O=Cc1c(O)cccc1OC[C@H]1CN(C(=O)c2cccc(O)c2C=O)CCO1 [Compound 62] showed Delta-p50 (%) equal to 69

The molecule CC1(C)CN(C(=O)c2cccc(O)c2C=O)C(COc2cccc(O)c2C=O)CO1 (stereo in doubt) showed Delta-p50 (%) equal to 67

The molecule O=Cc1ccccc1OC[C@@H]1COCCN1C(=O)c1cccc(O)c1C=O showed Delta-p50 (%) equal to 70

The molecule O=Cc1c(O)cccc1CN1C(=O)CCCC1COc1cccc(O)c1C=O (racemic) showed Delta-p50 (%) equal to 71

The molecule O=Cc1cccc(C(=O)N2CCC[C@@H](COc3cccc(O)c3C=O)C2)c1O showed Delta-p50 (%) equal to 71

The molecule CC1(C)C[C@@H](COc2cccc(O)c2C=O)N(C(=O)c2cccc(O)c2C=O)C1 showed Delta-p50 (%) equal to 69

The molecule O=Cc1cc(C(=O)N2CCC[C@@H](COc3cccc(O)c3C=O)C2)ccc1O showed Delta-p50 (%) equal to 71

The molecule O=Cc1c(O)cccc1OCC1CSCCN1C(=O)c1cccc(O)c1C=O (single isomer, unassigned) [67 (Enantiomer 1)] showed Delta-p50 (%) equal to 67.2

The molecule O=Cc1c(O)cccc1OC[C@@H]1CCCN(C(=O)Oc2cccc(O)c2C=O)C1 showed Delta-p50 (%) equal to 70

The molecule CC1CN(C(=O)c2cccc(O)c2C=O)C(COc2cccc(O)c2C=O)CO1 (centres unmarked) showed Delta-p50 (%) equal to 67

The molecule O=Cc1c(O)cccc1OC[C@H]1CN(C(=O)c2cccc(O)c2C=O)CCO1 [Compound 59] showed Delta-p50 (%) equal to 71

The molecule COc1ccc(C(=O)N2CCCC[C@H]2COc2cccc(O)c2C=O)c(C=O)c1O showed Delta-p50 (%) equal to 71
